Source of measurements: ChEMBL document CHEMBL5214897

Test: Therapeutic index, ratio of HC50 for Hemolytic activity in human RBC to MIC for Antibacterial activity against methicillin-resistant Staphylococcus aureus
Format: toxicity
measurement.name: selectivity ratio

Please review the entries below; each comes with its answer.
CCCCCCCCCCCC(=O)NCCNC(=O)c1cc(NC(=O)CN(C[C@@H](N)CCCCN)C(=O)CC23CC4CC(CC(C4)C2)C3)cc(NC(=O)CN(C[C@@H](N)CCCCN)C(=O)CC23CC4CC(CC(C4)C2)C3)c1 | 55.5
CCCCCCCC(=O)NCCNC(=O)c1cc(NC(=O)CN(C[C@@H](N)CCCCN)C(=O)CCCCCCC)cc(NC(=O)CN(C[C@@H](N)CCCCN)C(=O)CCCCCCC)c1 | > 55.5
CCCCCCCC(=O)NCCNC(=O)c1cc(NC(=O)CN(C[C@@H](N)CCCCN)C(=O)CC23CC4CC(CC(C4)C2)C3)cc(NC(=O)CN(C[C@@H](N)CCCCN)C(=O)CC23CC4CC(CC(C4)C2)C3)c1 | > 125

Task item: Identify measured selectivity ratio corresponding to `CCCCCCCC(=O)NCCNC(=O)c1cc(NC(=O)CN(C[C@@H](N)CCCCN)C(=O)Cc2cccc3ccccc23)cc(NC(=O)CN(C[C@@H](N)CCCCN)C(=O)Cc2cccc3ccccc23)c1`
Reply: > 27.8
